Below, each entry is listed alongside its reported Ki.
target: Neuronal acetylcholine receptor; alpha3/beta2 (Rattus norvegicus, UniProt P04757+P12390); assay: Displacement of [3H]Epibatidine from rat alpha3beta2 nAChR
Sequence (P04757 whole entry): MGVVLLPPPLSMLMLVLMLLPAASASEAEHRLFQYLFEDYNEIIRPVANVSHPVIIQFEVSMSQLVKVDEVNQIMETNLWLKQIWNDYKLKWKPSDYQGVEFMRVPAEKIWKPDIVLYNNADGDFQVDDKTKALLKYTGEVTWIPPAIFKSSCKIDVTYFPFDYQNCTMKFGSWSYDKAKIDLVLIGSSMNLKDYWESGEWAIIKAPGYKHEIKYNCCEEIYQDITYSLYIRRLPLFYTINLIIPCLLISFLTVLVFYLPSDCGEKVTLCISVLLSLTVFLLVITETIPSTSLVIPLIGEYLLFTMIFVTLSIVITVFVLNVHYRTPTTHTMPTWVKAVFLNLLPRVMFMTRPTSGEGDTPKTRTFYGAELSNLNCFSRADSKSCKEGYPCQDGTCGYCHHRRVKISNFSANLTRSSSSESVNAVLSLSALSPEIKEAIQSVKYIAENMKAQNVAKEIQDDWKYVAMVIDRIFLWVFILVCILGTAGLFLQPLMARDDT
Sequence (P12390 whole entry): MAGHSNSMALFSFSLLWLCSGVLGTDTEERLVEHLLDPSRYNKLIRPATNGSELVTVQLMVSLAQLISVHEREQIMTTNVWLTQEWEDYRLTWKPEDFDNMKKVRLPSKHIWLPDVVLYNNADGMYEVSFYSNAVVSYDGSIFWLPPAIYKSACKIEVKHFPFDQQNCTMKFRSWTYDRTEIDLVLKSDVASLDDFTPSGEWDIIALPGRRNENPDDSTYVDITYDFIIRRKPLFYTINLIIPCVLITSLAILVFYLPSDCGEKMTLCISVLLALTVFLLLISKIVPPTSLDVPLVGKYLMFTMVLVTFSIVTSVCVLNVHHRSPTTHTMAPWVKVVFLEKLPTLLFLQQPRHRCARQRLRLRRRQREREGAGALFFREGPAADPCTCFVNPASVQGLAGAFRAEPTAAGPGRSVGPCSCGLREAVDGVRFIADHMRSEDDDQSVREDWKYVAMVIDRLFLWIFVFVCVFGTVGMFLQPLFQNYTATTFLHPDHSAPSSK
observedProperty: Ki (nM)

>>> print(df.to_string())
                             chemicalstring  testresult
0  c1ncc(-c2cc(CCN3CCOCC3)no2)cc1OC[C@@H]1CCN1         117
1  c1ncc(-c2cc(CCN3CCOCC3)no2)cc1OC[C@@H]1CCCN1         575

---

Recorded measurements of EC50, one per entry
target: Neuronal acetylcholine receptor; alpha4/beta2 (Homo sapiens, UniProt P17787+P43681); assay: Agonist activity at human alpha4beta2 nAChR expressed in human SH-EP1 cells assessed as stimulation of 86Rb+ efflux preincubated for 10 mins by liquid scintillation counting; type: functional, cell-based; settings: sh-ep1; read-out: EC50
Sequence (P17787 whole entry): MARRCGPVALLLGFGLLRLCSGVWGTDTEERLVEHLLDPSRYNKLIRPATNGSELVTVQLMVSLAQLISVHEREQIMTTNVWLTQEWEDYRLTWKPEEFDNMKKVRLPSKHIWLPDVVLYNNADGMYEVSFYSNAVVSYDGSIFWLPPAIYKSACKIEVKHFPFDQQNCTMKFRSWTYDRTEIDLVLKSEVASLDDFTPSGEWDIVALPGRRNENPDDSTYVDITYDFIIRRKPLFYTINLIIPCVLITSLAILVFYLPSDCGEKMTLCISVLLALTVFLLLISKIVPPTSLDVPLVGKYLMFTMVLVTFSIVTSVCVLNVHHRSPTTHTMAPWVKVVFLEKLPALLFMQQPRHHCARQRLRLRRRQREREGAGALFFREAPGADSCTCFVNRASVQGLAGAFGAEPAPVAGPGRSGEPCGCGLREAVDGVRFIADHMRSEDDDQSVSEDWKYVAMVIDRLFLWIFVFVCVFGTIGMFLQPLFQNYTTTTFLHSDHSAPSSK
Sequence (P43681 whole entry): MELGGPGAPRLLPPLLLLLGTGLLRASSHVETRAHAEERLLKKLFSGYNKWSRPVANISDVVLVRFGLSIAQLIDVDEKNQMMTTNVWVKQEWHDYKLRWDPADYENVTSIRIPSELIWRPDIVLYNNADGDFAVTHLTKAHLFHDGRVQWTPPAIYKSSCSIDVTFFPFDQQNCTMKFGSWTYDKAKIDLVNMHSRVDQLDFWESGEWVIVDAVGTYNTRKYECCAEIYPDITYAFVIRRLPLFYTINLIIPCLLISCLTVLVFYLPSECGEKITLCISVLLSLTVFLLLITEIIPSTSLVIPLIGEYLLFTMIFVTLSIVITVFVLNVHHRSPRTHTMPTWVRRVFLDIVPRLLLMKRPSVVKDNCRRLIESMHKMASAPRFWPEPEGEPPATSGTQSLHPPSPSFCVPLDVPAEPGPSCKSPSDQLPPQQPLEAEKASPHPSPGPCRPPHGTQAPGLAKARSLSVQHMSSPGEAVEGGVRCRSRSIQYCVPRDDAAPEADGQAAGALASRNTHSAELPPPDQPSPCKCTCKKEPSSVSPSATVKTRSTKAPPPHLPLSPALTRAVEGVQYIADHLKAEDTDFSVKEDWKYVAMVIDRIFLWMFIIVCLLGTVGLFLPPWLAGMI
observedProperty: EC50

In [3]: df
Out[3]:
                             chemicalstring  testresult
0  c1ncc(-c2cc(CCN3CCOCC3)no2)cc1OC[C@@H]1CCN1    > 100 nM
1  c1ncc(-c2cc(CCN3CCOCC3)no2)cc1OC[C@@H]1CCCN1    > 100 nM
